- Tested on: HCV 1a-H77 subgenomic replicon
- ASSAY_OVERVIEW: microbe, parasite or virus in culture
- Type: cell-based, HCV genotype 1a
- CONDITION_PARAMETERS: Hepatitis C virus, stable replicon, 5% FBS, absence of human plasma; read-out: Stable Replicon 1a H77 5% FBS EC50
Could you please mark Yes for values of EC50 below 40 nM and No for values at or above it?

For orientation, consider the following solved cases.
- COMPOUND: "CC(C)(C)[Si](C)(C)OCCCCN(c1cc2oc(-c3ccc(F)cc3)c(-c3ncc[nH]3)c2cc1C1CC1)S(C)(=O)=O [Example 42]"
  CLASS: "No"
- COMPOUND: "CS(=O)(=O)N(CC(O)CO)c1cc2oc(-c3ccc(F)cc3)c(-c3ncc[nH]3)c2cc1C1CC1 (stereo not shown) [Example 93]"
  CLASS: "No"
- COMPOUND: "CCN(CC)CCCN(c1cc2oc(-c3ccc(F)cc3)c(C3=NOCCN3)c2cc1C1CC1)S(C)(=O)=O [Example 131]"
  CLASS: "No"
- COMPOUND: "CCOP(=O)(CCCN(c1cc2oc(-c3ccc(F)cc3)c(C3=NOCCN3)c2cc1C1CC1)S(C)(=O)=O)OCC [Example 116]"
  CLASS: "Yes"
- COMPOUND: "CS(=O)(=O)NCCCN(c1cc2oc(-c3ccc(F)cc3)c(-c3ncc[nH]3)c2cc1C1CC1)S(C)(=O)=O [Example 95]"
  CLASS: "Yes"

Query: # check: EC50 < 40 nM for [2H]C1([2H])NC(c2c(-c3ccc(F)cc3)oc3cc(N(CCCCS(C)(=O)=O)S(C)(=O)=O)c(C4CC4)cc23)=NO1 [Example 150]
Result: Yes

Query: # check: EC50 < 40 nM for CS(=O)(=O)N(CCCF)c1cc2oc(-c3ccc(F)cc3)c(-c3ncc[nH]3)c2cc1C1CC1 [Example 85]
Result: Yes
